# assay notes: yeast display, Sf9 membrane polyspecificity reagent, FACS + sequencing; frameworks hold sequencing errors
readout kind: polyreactivity (PSR sort gate)

sequence text: QVQLVESGGGLVQAGGSLRLSCAASGFTFWSYGMGWYRQAPGKERELVAAISWSGGRTYYADSVKGRFTISRDNAKNTVYLQMNSLKPDDTAVYYCAAQPYYYFDEYTQYDYWGQGTQVTVSS
polyreactivity (PSR sort gate): high polyreactivity

sequence text: QVQLVESGGGLVQAGGSLLLSCSASGRTFPVNAMGWYRKAHGKEREFVAVISSTGTTYYADSVKGRFTISRDNAKNTVYLQMNSLQPVDTAVYYCARRSNRRAYGNRVGVRRTVDYWGQGTQVTVSS
polyreactivity (PSR sort gate): low polyreactivity

sequence text: KVQLVESGGGLVQAGGSLRLSCAASGRTFVYYAMGWYRQAPGKERELVAAISSGGSTNYADSVKGRFTISRDNAKNTVYLQMNSLKPEDTAVYYCNADWGFPDVKETGVRFDYWGQGTQVTVSS
polyreactivity (PSR sort gate): low polyreactivity

sequence text: QVQLVESGGGLVQAGGSLRLSCAASGITLTNNAMGWSRHAPGKERELVAAITRSGGSTYYADSVKGRFTISRDNAKNTVYLLMNSLKPEVTAVYCAARWYSYSGSIRSYDYWGQGTQVTVSS
polyreactivity (PSR sort gate): low polyreactivity

Let's switch to this sequence now.
# query: polyreactivity (PSR sort gate) of entry `QVQLVESGGGLVQAGGSLRLSCAASGSIFYGYAMGWYRPAPGKERELVAAITSGGRTYYADSVKGRFTISRDNAKNTVYLQMNSLKPEDTAVYYCNKLNYWSVRYEYWGQGTQVTVSS` high polyreactivity

----------
# assay notes: yeast display, Sf9 membrane polyspecificity reagent, FACS + sequencing; frameworks hold sequencing errors
readout kind: polyreactivity (PSR sort gate)

Solved entries (count: 5):
sequence text: QVQLEESGGGLVQAGGSLRLSCAASGRIFWWYGMGWYREAPGKERELVASITYSGVSTYYADSVKGRFTISRDNAKNTVYLQMNSLTPEDTAVYYCAADRSRYFSYKYDYWGQGTQVTVSS
polyreactivity (PSR sort gate): high polyreactivity
--
sequence text: QVQLVESGGGLVQAGGSLRLSCAASGRTFPPYAMGWYRQAPGKERELVAAISRRAGTTYYADSVKGRFTISRDNAKNTVYLQMNSLKPEDTAVYYCAASDHYRWYVHRWEDPFYYWGQGTQVTVSS
polyreactivity (PSR sort gate): low polyreactivity
--
sequence text: QVQLVESGGGLVQAGGSLRLSCAASGGTFRYNAMGWYRQAPGKERELVAAISSSGGSTYYADSVKGRFTISRDNAKNTVYLQMNSLKPEDTAVYYCAAKRRRYVELDYWGQVTQVTVSS
polyreactivity (PSR sort gate): high polyreactivity
--
sequence text: QVQLVESGGGLVQAGGSLRLSCAASGRILGGNTMGWYRQAPGKERELVAGISYSGGRTYYADSVKGRFTISRDNAKHTVYLQMNSLKPEDTAVYYCAAEYDWYSYQLDYWGQGTQVTVSS
polyreactivity (PSR sort gate): high polyreactivity
--
sequence text: QVQLVESGGGLVQAGGSLRLSCAASGSTFGWYAMGWYRQAPGKERELVAAISNSGGSTYYADSVKGRFTISRDNAKNTVYLQMNSLKPEDTAVYYCATYHTTSYYQLVFDYWGQGTQVTVSS
polyreactivity (PSR sort gate): low polyreactivity

# query: polyreactivity (PSR sort gate) of entry `QVQLVESGGGLVQAGGSLRLSCAASGRTSLAYAMGWYRQAPGKERELVAAINTRGGSTYYADSVKGRFTISRDNAKNTVFLQINSLKPEDTAVYYCAKGPRLYFTRDKAHWKYDYWGQGTQVTVSS` low polyreactivity

Can you handle `QVQLVESGGGLVQAVGSLRLSCAASGRTFWANTMGWYRQAPGKERELVAAISKRGGSTYYADSVKGRFTISRDNAKNTVYLQMNSLKPEDTAVYYCNADKSGWYDYWGQGTQVTVSS` next? high polyreactivity

Can you handle `QVQLVESGAGLVQEGGSLRLSCAASGFTFFGYAMGWYRQEPGKERELVATISDTGGSTYADSVKGRFTISRDTAKNTVYLQMNCVKPEDTAVYYCNARSVFYSMDYWGQGTQVTVSS` next? low polyreactivity

Can you handle `QVQLVESVGGLVQAGGSLRLSCAASGNTFRYNTMGWYRQAPGKERELVAVITRRGSSTYYADSVKGRFTISRDNAKNTVYLQMNSLKPEDTAVYYCAAGYGRYGYVYSGYGKWEDYWGQGTQVTVSS` next? high polyreactivity

Can you handle `QVQLVESGGGLVQAGGSLRLSCAASGRTSGFNTMGWYRQAPGKERELVAAISFSGGSTYYADSVKGRFTISRDYSKNTVYLQMNSLKPEDTAVYYCTALYRYLYRSGDYWGQGTQVTVSS` next? low polyreactivity

Can you handle `QVQLVESGGGLVQAGGSLRLSCAASGSIFNRYAMGWYRQAPGKERELVAAIRSGDNTNYADSVKGRFTISRDNAKNTVYLQMNSLKPEDTAVYYCAIRTYYRSRTVGWGKMDYWGQGTQVTVSS` next? high polyreactivity
